Target: PH domain of PDK1 (GST-PH domain fusion protein) (Homo sapiens)
Construct: made in house
Sequence (O15530 459-550 limits assumed): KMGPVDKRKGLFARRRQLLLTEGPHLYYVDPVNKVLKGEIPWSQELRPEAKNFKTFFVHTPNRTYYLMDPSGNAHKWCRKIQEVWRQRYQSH
Test: Surface plasmon resonance binding, PDK1 PH domain
Settings: SPR; means (n = 3) ± SD; read-out: Kd, PDK1 PH domain
pKd: −log10 of the molar value.
Parameter: pKd. Scope: all listed entries.
MEASURE NAME: pKd

In [3]: df
Out[3]:
                           structure_string  test_value
0     Cc1c(O)cc2c(c1C)O[C@](C)(CCCC(C)C)CC2        4.91
1  Cc1c(C)c2c(c(C)c1O)CC[C@@](C)(CCCC(C)C)O2        4.71

The reported measurements were obtained from patent US20140031388A1.
